The origin of these recorded values is ChEMBL document CHEMBL1140538.

assay-explanation: Effect on cell proliferation assessed as radiolabeled thymidine incorporation in cell-based assay
Assay type: functional
experimental-parameters: Homo sapiens
Can you tell me IC50 for the items I'm about to list?
Expressed in nM, but write only the number.

// query IC50 value for entry Brc1cnn2c(NCc3cccnc3)cc(C3CCCNC3)nc12 (configuration not stated)
60

// query IC50 value for entry `Brc1cnn2c(NCc3cccnc3)cc(-c3ccco3)nc12`
15200

// query IC50 value for entry `COc1cc(NCc2cccnc2)n2ncc(Br)c2n1`
2000

// query IC50 value for entry `CCOC(=O)c1cc(NCc2cccnc2)n2ncc(Br)c2n1`
2900

// query IC50 value for entry `CCc1cc(NCc2cccnc2)n2ncc(Br)c2n1`
520

// query IC50 value for entry `CNc1cc(NCc2cccnc2)n2ncc(Br)c2n1`
1200

// query IC50 value for entry `Cc1cc(NCc2cccnc2)n2ncc(Br)c2n1`
1800

---

assay-explanation: Inhibition of human CDK2/cyclin A
endpoint-name: IC50 (nM)
Expressed in nM, but write only the number.

// query IC50 value for entry `CC(=O)NCCSc1cnn2c(NCc3cccnc3)cc(-c3ccccc3)nc12`
2

// query IC50 value for entry `Fc1ccccc1-c1cc(NCc2ccccc2)n2ncc(Br)c2n1`
300

// query IC50 value for entry CC(Nc1cc(-c2ccccc2)nc2c(Br)cnn12)c1cccnc1 (centres undefined)
3000

// query IC50 value for entry `Brc1cnn2c(NCc3cccnc3)cc(C3CCCCC3)nc12`
4

// query IC50 value for entry Brc1cnn2c(NCc3cccnc3)cc(C3CCCNC3)nc12 (centres undefined)
8

// query IC50 value for entry `CNc1cc(NCc2cccnc2)n2ncc(Br)c2n1`
43

// query IC50 value for entry `CC(C)c1cc(NCc2cccnc2)n2ncc(Br)c2n1`
17

// query IC50 value for entry `C=Cc1cnn2c(NCc3cccnc3)cc(-c3ccccc3)nc12`
90

// query IC50 value for entry `Brc1cnn2c(NCc3cccnc3)cc(-c3ccccc3)nc12`
11

// query IC50 value for entry `CCCNc1cc(-c2ccccc2Cl)nc2c(Br)cnn12`
163

// query IC50 value for entry `Fc1ccccc1-c1cc(Nc2ccccc2)n2ncc(Br)c2n1`
408

// query IC50 value for entry `OCCSc1cnn2c(NCc3cccnc3)cc(-c3ccccc3)nc12`
30

// query IC50 value for entry `c1ccc(-c2cc(NCc3cccnc3)n3nccc3n2)cc1`
250

// query IC50 value for entry OC(c1cnn2c(NCc3cccnc3)cc(-c3ccccc3)nc12)C(F)(F)F (centres undefined)
3400

// query IC50 value for entry CC(O)c1cc(NCc2cccnc2)n2ncc(Br)c2n1 (centres undefined)
38

// query IC50 value for entry `CNc1cc(-c2ccccc2Cl)nc2c(Br)cnn12`
20

---

Can you tell me IC50 for the items I'm about to list?
assay-explanation: Inhibition of human CDK2/cyclin A

// query IC50 value for entry `c1ccc(-c2cc(NCc3cccnc3)n3ncc(-c4ccccc4)c3n2)cc1`
> 50 µM

// query IC50 value for entry `O=[N+]([O-])c1cnn2c(NCc3cccnc3)cc(-c3ccccc3)nc12`
> 50 µM

// query IC50 value for entry `CC(=O)c1cnn2c(NCc3cccnc3)cc(-c3ccccc3)nc12`
> 50 µM
